Tested on: S. cerevisiae Mot1-301 ts growth rescue, BacTiter-Glo ATP luminescence
test protocol: restored Mot1-301 yeast growth at 38.5C – whole organism, S. cerevisiae, Mot1-301 ts mutant, luminescence, dose retest, SUMOylation pathway inhibitor project, confirmation (AID 463204);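 note: growth at restrictive 38.5 degrees C of Mot1-301 OY566 strain; actives raise luminescence by restoring growth of the ts mutant at high temperature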
Active and inactive are the calls of the source.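 Rule for the calls: active = AC50 no more than ten times the top concentration tested, that is within one log above it; inconclusive = flat curve fit with activity between 30% and 70%, or invalid poor fit; inactive = AC50 beyond ten times the top tested dose.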
Permitted responses: 1 = active, -1 = inactive

Examples from the recorded data:
O=C(Nc1ccc([N+](=O)[O-])cn1)C1CC1 | -1
O=C(O)C1CCCN1C(=O)c1cncc(Br)c1 (stereo not given) | -1
C[C@@]12C(=O)Nc3ccc(F)cc3C(=O)N1[C@H]1c3cc(Cl)ccc3OC[C@@H]1[C@@H]2c1ccccc1 | 1
Cc1cnc(C(=O)OC(C(=O)c2c[nH]c3ccccc23)c2ccccc2)cn1 (stereo not given) | 1

Asked: Recorded call for `Oc1c(Cl)cc(Cl)c(Cl)c1Cc1c(O)c(Cl)cc(Cl)c1Cl` ?
Given back: 1

----------
Test system: S. cerevisiae Mot1-301 ts growth rescue, BacTiter-Glo ATP luminescence
test protocol: restored Mot1-301 yeast growth at 38.5C – whole organism, S. cerevisiae, Mot1-301 ts mutant, luminescence, dose retest, SUMOylation pathway inhibitor project, confirmation (AID 463204);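 note: growth at restrictive 38.5 degrees C of Mot1-301 OY566 strain; actives raise luminescence by restoring growth of the ts mutant at high temperature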
The source made the active and inactive calls.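 The calls were made as follows: active = AC50 no more than ten times the top concentration tested, that is within one log above it; inconclusive = flat curve fit with activity between 30% and 70%, or invalid poor fit; inactive = AC50 beyond ten times the top tested dose.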
Permitted responses: Y for active, N for inactive

Examples from the recorded data:
Cc1[nH]nc2c1C(c1cccs1)C1=C(CC(C)(C)CC1=O)N2 (stereo unspecified) | N
CCOC(=O)N1CCN(C(=O)c2ccc3ccccc3c2)CC1 | N
CO/N=C/c1ccc(Oc2ccc(C)cc2)nc1 | N

Asked: Recorded call for `S=C(Nc1ccc(Cl)cc1)N1CCN(Cc2ccccc2)CC1` ?
Given back: N

Asked: Recorded call for `C[C@@]12C(=O)Nc3ccc(F)cc3C(=O)N1[C@H]1c3ccccc3OC[C@@H]1[C@@H]2c1ccccc1` ?
Given back: Y

----------
Tested on: S. cerevisiae Mot1-301 ts growth rescue, BacTiter-Glo ATP luminescence
test protocol: restored Mot1-301 yeast growth at 38.5C – whole organism, S. cerevisiae, Mot1-301 ts mutant, luminescence, dose retest, SUMOylation pathway inhibitor project, confirmation (AID 463204);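 note: growth at restrictive 38.5 degrees C of Mot1-301 OY566 strain; actives raise luminescence by restoring growth of the ts mutant at high temperature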
Active and inactive are the calls of the source.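 How the source made its calls: active means AC50 no more than ten times the top concentration tested, that is within one log above it; inconclusive means flat curve fit with activity between 30% and 70%, or invalid poor fit; inactive means AC50 beyond ten times the top tested dose.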
Permitted responses: active, inactive

Examples from the recorded data:
OC(COCc1cccs1)CN1CCCCCC1 (stereo not drawn) | inactive
Cc1cc(NC(=O)CC2CCCC2)ccc1Br | inactive
CC(NC(=O)C1CCCCC1)C(=O)NC1=NCCS1 (stereo not drawn) | inactive
CC1(OC(=O)CCc2ccccc2)C(=O)C=C2C=C(c3ccc(C#N)cc3)N(CC3CC3)C=C2C1=O (stereo not drawn) | inactive

Asked: Recorded call for `COc1cccc(OC)c1C(=O)N1CCN(Cc2ccccc2C)CC1` ?
Given back: inactive

Asked: Recorded call for `Cc1cc(C)c(OCC(=O)N/N=C/c2ccco2)c(C)c1` ?
Given back: inactive

Asked: Recorded call for `C=C(C)Cc1c(C)c(C#N)c2[nH]c3ccccc3n2c1=O` ?
Given back: inactive

Asked: Recorded call for O=C(CCC(=O)OC(C(=O)c1ccccc1)c1ccccc1)Nc1ccccc1 (stereo not drawn) ?
Given back: inactive

Asked: Recorded call for `C/C(CC(=O)Nc1cccc(Cl)c1Cl)=N\NC(=O)c1ccccc1C` ?
Given back: inactive

Asked: Recorded call for `Cc1ccc(NC(=O)Nc2cccc(C(F)(F)F)c2)nc1` ?
Given back: inactive

Asked: Recorded call for CCC(C)[C@H](NC(=O)OC(C)(C)C)C(=O)NCC1CCC(C(=O)N[C@@H](Cc2ccccc2)C(=O)O)CC1 (stereo partly drawn) ?
Given back: inactive

Asked: Recorded call for CCC(C)NCCOc1ccccc1C (stereo not drawn) ?
Given back: inactive

Asked: Recorded call for `CCNC(=S)NNC(=O)c1ccc(=O)n(Cc2ccccc2)c1` ?
Given back: inactive

Asked: Recorded call for `CCN(CC)CCNC(=O)CCn1c(=S)[nH]c2cc3c(cc2c1=O)OCO3` ?
Given back: inactive

Asked: Recorded call for `Cc1ccc(S(=O)(=O)N2CCOCC2)cc1NC(=O)COC(=O)CNC(=O)c1ccccc1` ?
Given back: inactive

Asked: Recorded call for Cc1cc2c3c(c1)C1(SCC(=O)N1c1ccc(F)cc1)C(=O)N3C(C)(C)CC2C (stereo not drawn) ?
Given back: active
